Target: MK2 (Homo sapiens)
Sequence (P49137 whole entry): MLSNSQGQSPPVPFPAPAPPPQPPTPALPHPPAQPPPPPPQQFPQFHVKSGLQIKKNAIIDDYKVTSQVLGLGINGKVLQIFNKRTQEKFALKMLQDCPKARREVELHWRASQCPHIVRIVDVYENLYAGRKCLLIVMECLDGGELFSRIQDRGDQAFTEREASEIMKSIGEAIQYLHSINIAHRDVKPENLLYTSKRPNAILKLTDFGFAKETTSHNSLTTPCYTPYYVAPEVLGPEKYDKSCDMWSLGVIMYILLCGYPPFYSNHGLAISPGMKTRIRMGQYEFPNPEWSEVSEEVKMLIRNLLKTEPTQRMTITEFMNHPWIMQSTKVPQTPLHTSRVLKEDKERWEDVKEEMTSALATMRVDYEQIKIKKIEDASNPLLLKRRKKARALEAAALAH
Test: MK2 degradation in human SW1353 cells (MSD, 24 h)
Type: cell-based
Design: endogenous in cells; host or cells: SW-1353 (ATCC HTB-94)
Conditions: read-out: MK2 MSD SW 1353 24 h Dmax %
Parameter: Dmax

// solved cases for Dmax follow
{"columns": ["Compound", "Assayed System", "Assay Result"],
 "data": [
  ["C[C@@H]1CNc2c(sc3ccc4nc(-c5ccc(N6CCN(CCCCOc7ccc(N8CCC(=O)NC8=O)cc7)CC6)nc5)ccc4c23)C(=O)N1", "MK2 (Homo sapiens)", "> 75%"],
  ["C[C@@H]1CNc2c(sc3ccc4nc(N5CCC(N6CCC7(CCN(c8ccc9c(c8)n(C)c(=O)n9C8CCC(=O)NC8=O)CC7)CC6)CC5)ccc4c23)C(=O)N1 (some centres unmarked)", "MK2 (Homo sapiens)", "> 75%"],
  ["Cn1c(=O)n(C2CCC(=O)NC2=O)c2cccc(N3CCC(CCN4CCN(c5ccc(-c6cc(-c7cc8c([nH]7)CCNC8=O)ccn6)cc5)CC4)CC3)c21 (centres unmarked)", "MK2 (Homo sapiens)", "> 75%"],
  ["Cn1c(=O)n(C2CCC(=O)NC2=O)c2ccc(N3CCC(CN4CCN(c5ccc6cc(-c7cc(Nc8ccnc(N)n8)cc8cn[nH]c78)oc6c5)CC4)CC3)cc21 (centres unmarked)", "MK2 (Homo sapiens)", "< 50%"]
]}

For the next question, use this compound.
-- ask Name the recorded Dmax of the item C[C@@H]1CNc2c(sc3ccc4nc(N5CCCN(C6CC7(CCN(c8ccc9c(c8)n(C)c(=O)n9C8CCC(=O)NC8=O)CC7)C6)CC5)ccc4c23)C(=O)N1 (some centres unmarked) in your answer.
-- reply 50 to 75%
